testTarget: US Standard Human Thrombin (Homo sapiens)
Construct: US Standard Human Thrombin; purchased NIH, Bethesda, Md., USA
experiment: Change in the antithrombin activity of aqueous solutions of tripeptide-aldehyde sulfates on storage
Format: physicochemical
studyConditions: percentage of initial activity; aqueous solution 10 mg/ml, pH = 6.0, stored at 40° C.; Day 3
As shown below, each of these compounds has a reported Activity (%) Day 3 value.
Response body: numeric value in %, unit text excluded.

[ask] For the compound shown here, CN[C@H](Cc1ccccc1)C(=O)N1CCC[C@H]1C(=O)N[C@@H](C=O)CCCNC(=N)N.O=S(=O)(O)O , give the reported Activity (%) Day 3.
[reply] 100

Where do these numbers come from? They come from patent US4703036A.
